study.system: Jmjd6 (Homo sapiens)
protocol: Standard assay for Jmjd6 oxygenase activity: peptide hydroxylation by MALDI-TOF MS
Type: biochemical
conditions: Table 4; standard assay conditions
outcome.measure: activity (hydroxylation of LUC7-like2 peptides)

| substance | test.value |
| --- | --- |
| 20 (NPKKSKSREHRR) [No 20] | double |
| 24 (NPKRSRSREHKK) [No 24] | yes |
| 22 (NPKKSKSKEHKK) [No 22] | double |
| 23 (NPKRSRSKEHKK) [No 23] | yes |
| 21 (NPKKSKSKEHRR) [No 21] | double |

Where do the numbers come from? From patent US20110130449A1.
